src = ChEMBL document CHEMBL4330081

biological target: Bromodomain-containing protein 4 (Homo sapiens, UniProt O60885); experiment: Inhibition of BRD4 BD1 (unknown origin) using biotin labelled NeC: SGRG-K(Ac)-GG-K(Ac)-GLG-K(Ac)-GGA-K(Ac)-RHRKVGG-K as substrate preincubated for 15 mins followed by substrate addition measured after 30 mins by alpha screen assay
Would you mind sorting the entries by IC50 according to these classes? bucket 1 (below 90 nM), bucket 2 (90 nM to below 5000 nM), bucket 3 (5000 nM or more)

Q: Textbook exercise: identify the category of the compound given here, Oc1ccc(Cn2cncn2)c2cccnc12 , according to its measured value.
A: bucket 2

Q: Entry Oc1ccc(CNc2ccc(C(F)(F)F)cc2)c2cccnc12 belongs to which category?
A: bucket 2

Q: Would you mind sorting CCCOCc1ccc(O)c2ncccc12 into the appropriate category?
A: bucket 2

Q: // bin(item) where item = Cn1c(/N=N/c2ccc(O)c3ncccc23)nc2ccccc21
A: bucket 2

Q: Consider CC(C)(CCl)C(=O)Oc1ccc(Cn2ccnc2)c2cccnc12 . To which IC50 class does it belong?
A: bucket 1

Q: Assign a category based on measured IC50 for Oc1ccc(Cn2c(-c3cscn3)nc3ccccc32)c2cccnc12 and give only the class name.
A: bucket 1

Q: Exam item: assign Cc1ccc2c(Cn3cnc(F)c3)ccc(OC(=O)OC(C)(C)C)c2n1 to the correct category.
A: bucket 1

Q: Please report the category associated with Cc1cc(C)c2ccc(NN)nc2c1O , nothing else.
A: bucket 3

Q: Category of O=C(N/N=C/c1ccc(O)c2ncccc12)c1cccc(Br)c1 , please.
A: bucket 3

Q: Classify this compound: Oc1ccc(CNc2cccc(C(F)(F)F)c2)c2cccnc12
A: bucket 2
